pIC50 by entry:
- Target or test system: Akt1 (Homo sapiens, UniProt P31749, S473D)
- Construct: The version of Akt used in these studies lacks the pleckstrin homology (PH) domain
- Sequence (P31749 118-480 S473D limits assumed, species assumed): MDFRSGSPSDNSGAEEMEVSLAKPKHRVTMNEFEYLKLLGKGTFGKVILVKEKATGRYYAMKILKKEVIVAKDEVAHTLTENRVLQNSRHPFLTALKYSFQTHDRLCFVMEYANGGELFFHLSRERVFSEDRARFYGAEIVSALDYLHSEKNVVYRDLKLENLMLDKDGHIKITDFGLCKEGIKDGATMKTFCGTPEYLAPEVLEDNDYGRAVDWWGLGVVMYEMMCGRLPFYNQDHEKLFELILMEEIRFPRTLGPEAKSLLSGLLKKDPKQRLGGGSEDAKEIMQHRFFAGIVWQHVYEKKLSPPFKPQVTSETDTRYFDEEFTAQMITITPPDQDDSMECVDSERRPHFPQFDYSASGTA
- Experiment summary: Akt1 kinase assay, fluorescence polarization (IMAP)
- Format: biochemical
- Conditions used: Table 1, concentration bins; read-out: Concentration Range at which exemplary compounds of formula I inhibit Akt kinase activity
pIC50: −log10 of the molar value.

# count of solved cases: 5
[
  {
    "Molecule": "Cc1c[nH]c2ncnc(N3CCC(N)(CNc4ccc(C#N)c(Cl)c4)C3)c12 (stereo not shown)",
    "Endpoint label": "pIC50",
    "Data value": "7.00 to 8.00"
  },
  {
    "Molecule": "Cc1cccc(F)c1C(=O)NC[C@@]1(N)CCN(c2ncnc3[nH]cc(Cl)c23)C1",
    "Endpoint label": "pIC50",
    "Data value": "7.00 to 8.00"
  },
  {
    "Molecule": "N[C@]1(CNC(=O)c2ccccc2Cl)CCN(c2ncnc3[nH]cc(Cl)c23)C1",
    "Endpoint label": "pIC50",
    "Data value": "8.00 to 8.60"
  },
  {
    "Molecule": "Cc1c[nH]c2ncnc(N3CCC(N)(CN(C)Cc4ccc(Cl)cc4)C3)c12 (stereo not shown)",
    "Endpoint label": "pIC50",
    "Data value": "5.00 to 7.00"
  },
  {
    "Molecule": "Cc1c[nH]c2ncnc(N3CCC(N)(COc4cccc(C(F)(F)F)c4)C3)c12 (stereo not shown)",
    "Endpoint label": "pIC50",
    "Data value": "7.00 to 8.00"
  }
]

Q: Bench note: what pIC50 did Cc1c[nH]c2ncnc(N3CCC(N)(CNc4ccc(F)cc4F)C3)c12 (stereo not shown) show?
A: 8.00 to 8.60

Q: Another: "Cc1c[nH]c2ncnc(N3CC[C@](N)(CNC(=O)c4ccc(Cl)cc4F)C3)c12"
A: 7.00 to 8.00

Q: Another: "CCc1c[nH]c2ncnc(N3CC[C@](N)(CNC(=O)c4c(F)ccc(F)c4F)C3)c12"
A: 7.00 to 8.00

Q: Another: Cc1c[nH]c2ncnc(N3CCC(N)(CNc4cccc5c4CCCC5)C3)c12 (stereo not shown)
A: 8.00 to 8.60

Q: Another: "CCc1c[nH]c2ncnc(N3CC[C@](N)(CNC(=O)c4cccc(F)c4)C3)c12"
A: 7.00 to 8.00

Q: Another: "N[C@]1(CNC(=O)c2ccc(Cl)cc2F)CCN(c2ncnc3[nH]cc(Cl)c23)C1"
A: 7.00 to 8.00

Q: Another: "Cc1c[nH]c2ncnc(N3CC[C@](N)(CNc4cccc(C(F)(F)F)c4F)C3)c12"
A: 8.60 to 9.60

Q: Another: Cc1c[nH]c2ncnc(N3CCC(N)(CNc4cccc(OC(F)(F)F)c4)C3)c12 (stereo not shown)
A: 7.00 to 8.00

* * *

- Target or test system: Akt1 (Homo sapiens, UniProt P31749, S473D)
- Construct: The version of Akt used in these studies lacks the pleckstrin homology (PH) domain
- Experiment summary: Akt1 kinase assay, fluorescence polarization (IMAP)
- Format: biochemical
- Conditions used: Table 1, concentration bins; read-out: Concentration Range at which exemplary compounds of formula I inhibit Akt kinase activity
IC50 by entry:

# count of solved cases: 4
[
  {
    "Molecule": "CCc1c[nH]c2ncnc(N3CCC(N)(COc4cccc(C(F)(F)F)c4)C3)c12 (stereo not shown) [Example 64]",
    "IC50": "10.1 to 100 nM"
  },
  {
    "Molecule": "NC1(CNc2cccc(Oc3ccccc3)c2)CCN(c2ncnc3[nH]cc(Cl)c23)C1 (stereo not shown) [Example 6]",
    "IC50": "10.1 to 100 nM"
  },
  {
    "Molecule": "N#Cc1c[nH]c2ncnc(N3CC[C@](N)(CNC(=O)c4ccc(Cl)cc4F)C3)c12 [Example 99]",
    "IC50": "10.1 to 100 nM"
  },
  {
    "Molecule": "N[C@]1(CNC(=O)c2ccc(Cl)c(F)c2)CCN(c2ncnc3[nH]cc(Cl)c23)C1 [Example 83]",
    "IC50": "2.51 to 10 nM"
  }
]

Q: Give Akt1 (Homo sapiens, UniProt P31749, S473D) IC50 for Cc1c[nH]c2ncnc(N3CCC(N)(CN(CCN(C)C)C(=O)Nc4ccccc4)C3)c12 (stereo not shown) [Example 195]
A: 101 to 10000 nM

Q: Another: Cc1c[nH]c2ncnc(N3CCC(N)(CNCCN(C)C)C3)c12 (stereo not shown) [Example 46]
A: 101 to 10000 nM

* * *

- Target or test system: Akt1 (Homo sapiens, UniProt P31749, S473D)
- Construct: The version of Akt used in these studies lacks the pleckstrin homology (PH) domain
- Experiment summary: Akt1 kinase assay, fluorescence polarization (IMAP)
- Assay type: biochemical
- Conditions used: Table 1, concentration bins; read-out: Concentration Range at which exemplary compounds of formula I inhibit Akt kinase activity
IC50 by entry:

# count of solved cases: 5
[
  {
    "Compound": "N#Cc1c[nH]c2ncnc(N3CCC(N)(CNc4cccc(C(F)(F)F)c4F)C3)c12 (centres unmarked)",
    "Endpoint label": "IC50",
    "Data value": "2.51 to 10 nM"
  },
  {
    "Compound": "Cc1c[nH]c2ncnc(N3CC[C@](N)(COc4cccc(C(F)(F)F)c4)C3)c12",
    "Endpoint label": "IC50",
    "Data value": "10.1 to 100 nM"
  },
  {
    "Compound": "Cc1c[nH]c2ncnc(N3CCC(N)(CNc4ccc(S(=O)(=O)NCc5ccccc5)cc4)C3)c12 (centres unmarked)",
    "Endpoint label": "IC50",
    "Data value": "10.1 to 100 nM"
  },
  {
    "Compound": "Cc1c[nH]c2ncnc(N3CCC(N)(CNc4cccc(-c5cnco5)c4)C3)c12 (centres unmarked)",
    "Endpoint label": "IC50",
    "Data value": "101 to 10000 nM"
  },
  {
    "Compound": "N[C@]1(CNC(=O)c2ccc(F)cc2)CCN(c2ncnc3[nH]cc(Cl)c23)C1",
    "Endpoint label": "IC50",
    "Data value": "2.51 to 10 nM"
  }
]

Q: Bench note: what IC50 did "Cc1c[nH]c2ncnc(N3CC[C@](N)(CNC4=NC(=O)CC=C4)C3)c12" show?
A: 10.1 to 100 nM

Q: Another: CCc1c[nH]c2ncnc(N3CCC(N)(CNc4cccc(C(F)(F)F)c4)C3)c12 (centres unmarked)
A: 0.25 to 2.5 nM

Q: Another: Cc1c[nH]c2ncnc(N3CCC(N)(CN(C)c4ccccc4)C3)c12 (centres unmarked)
A: 101 to 10000 nM

* * *

- Target or test system: Akt1 (Homo sapiens, UniProt P31749, S473D)
- Construct: The version of Akt used in these studies lacks the pleckstrin homology (PH) domain
- Experiment summary: Akt1 kinase assay, fluorescence polarization (IMAP)
- Assay type: biochemical
- Conditions used: Table 1, concentration bins; read-out: Concentration Range at which exemplary compounds of formula I inhibit Akt kinase activity
IC50 by entry:

[
  {
    "Compound": "CCc1c[nH]c2ncnc(N3CC[C@](N)(CNc4cc(C)on4)C3)c12 [Example 1]",
    "IC50": "10.1 to 100 nM"
  },
  {
    "Compound": "CCc1c[nH]c2ncnc(N3CC[C@](N)(CNC(=O)c4cccc(Cl)c4)C3)c12 [Example 133]",
    "IC50": "2.51 to 10 nM"
  },
  {
    "Compound": "COc1cc(NCC2(N)CCN(c3ncnc4[nH]cc(C)c34)C2)cc(C(F)(F)F)c1 (centres unmarked) [Example 30]",
    "IC50": "10.1 to 100 nM"
  },
  {
    "Compound": "NC1(CNc2cccc(C(F)(F)F)c2)CCN(c2ccnc3[nH]ccc23)C1 (centres unmarked) [Example 42]",
    "IC50": "10.1 to 100 nM"
  },
  {
    "Compound": "N#Cc1c[nH]c2ncnc(N3CC[C@](N)(CNC(=O)c4ccc(F)cc4)C3)c12 [Example 94]",
    "IC50": "2.51 to 10 nM"
  },
  {
    "Compound": "Cc1c[nH]c2ncnc(N3CCC(N)(CNc4cc(C(F)(F)F)ccc4Oc4ccc(Cl)cc4)C3)c12 (centres unmarked) [Example 33]",
    "IC50": "2.51 to 10 nM"
  },
  {
    "Compound": "Cc1c[nH]c2ncnc(N3CCC(N)(CN(CCN(C)C)Cc4ccccc4)C3)c12 (centres unmarked) [Example 47]",
    "IC50": "101 to 10000 nM"
  },
  {
    "Compound": "N#Cc1n[nH]c2ncnc(N3CCC(N)(CNc4cccc(Cl)c4)C3)c12 (centres unmarked) [Example 8]",
    "IC50": "101 to 10000 nM"
  },
  {
    "Compound": "Cc1cc(C(=O)NC[C@]2(N)CCN(c3ncnc4[nH]cc(Cl)c34)C2)no1 [Example 79]",
    "IC50": "2.51 to 10 nM"
  },
  {
    "Compound": "N[C@]1(CNC(=O)c2cccc(F)c2)CCN(c2ncnc3[nH]cc(Cl)c23)C1 [Example 104]",
    "IC50": "2.51 to 10 nM"
  }
]

Next item in the queue.
Q: Bench note: what IC50 did Cc1c[nH]c2ncnc(N3CC[C@](N)(CNC(=O)c4ccc(F)cc4Cl)C3)c12 [Example 100] show?
A: 2.51 to 10 nM
